Values were extracted from paper PMC11564280.

# Assay type: in vivo, human
# condition.label: human, plasma, po, 2.5 mg
result.type: Vd/F (L)
One number for each entry, in L.

Please report the measured Vd/F for C[C@@H](N)c1cc(Cl)ccc1Cn1c(=S)[nH]c(=O)c2[nH]ccc21
2300

###

# protocol.description: Pharmacokinetics, Japanese and Chinese participants together or compared
# Type: in vivo, human
# condition.label: human, plasma, po
result.type: half-life

Please report the measured half-life for C[C@@H](N)c1cc(Cl)ccc1Cn1c(=S)[nH]c(=O)c2[nH]ccc21
50.2 to 57.8 h

###

# Type: in vivo, human
# condition.label: human, plasma, po, 10 mg
result.type: half-life
Kindly report the value followed by its unit.

Please report the measured half-life for C[C@@H](N)c1cc(Cl)ccc1Cn1c(=S)[nH]c(=O)c2[nH]ccc21
56.4 h
